- assay.notes: Equilibrium solubility study of polymorph in biological media (supernatant concentration; residual solid by XRPD)
- Type: physicochemical
- test.parameters: fasted state simulated gastric fluid (FaSSGF), 37 °C, fassgf or other biorelevant, thermodynamic from solid; FaSSGF; suspension ~10 mg/mL, 37±2° C., 24 h; polymorph of compound II
measure.name: solubility thermodynamic at 24 h (µg/mL)
State the answer as a number, implicitly in µg/mL.

Report solubility thermodynamic at 24 h for N#Cc1ccc(OCc2cccc(OC3CCN(Cc4nc5ccc(C(=O)O)cc5n4C[C@@H]4CCO4)CC3)n2)c(F)c1 [crystal form 2A of compound II] please.
180

---

- assay.notes: Equilibrium solubility study of polymorph in biological media (supernatant concentration; residual solid by XRPD)
- Format: physicochemical
- test.parameters: water, 37 °C, thermodynamic from solid; H2O; suspension ~10 mg/mL, 37±2° C., 24 h; polymorph of compound II
measure.name: solubility thermodynamic at 24 h
Reply with a number, then the unit it belongs to.

Give the measured solubility thermodynamic at 24 h of N#Cc1ccc(OCc2cccc(OC3CCN(Cc4nc5ccc(C(=O)O)cc5n4C[C@@H]4CCO4)CC3)n2)c(F)c1 [crystal form 2A of compound II] .
90 µg/mL

---

- assay.notes: Equilibrium solubility study of polymorph in biological media (supernatant concentration; residual solid by XRPD)
- Format: physicochemical
- test.parameters: fed state simulated intestinal fluid (FeSSIF), 37 °C, thermodynamic from solid; FeSSIF; suspension ~10 mg/mL, 37±2° C., 24 h; polymorph of compound II
measure.name: solubility thermodynamic at 24 h (µg/mL)
Numbers only; they are read as µg/mL.

Need solubility thermodynamic at 24 h, item N#Cc1ccc(OCc2cccc(OC3CCN(Cc4nc5ccc(C(=O)O)cc5n4C[C@@H]4CCO4)CC3)n2)c(F)c1 [crystal form 2A of compound II]
190
